Assay: Cmax in Sprague-Dawley rat at 10 mg/kg, IG
Format: ADME, organism-based
Parameters: dose 10 mg/kg, route ig
Conditions: in vivo, po
PARAMETER: Cmax

The recorded Cmax for entry `COc1cc(C(=O)[N-]S(=O)(=O)c2ccc(-n3nc(C(F)(F)F)cc3-c3ccc(C)cc3)cc2)ccc1[O-].[Na+].[Na+]` equals 5.81 µg/mL

---

Target: Transient receptor potential cation channel subfamily V member 1 (Homo sapiens)
Sequence (Q8NER1 whole entry): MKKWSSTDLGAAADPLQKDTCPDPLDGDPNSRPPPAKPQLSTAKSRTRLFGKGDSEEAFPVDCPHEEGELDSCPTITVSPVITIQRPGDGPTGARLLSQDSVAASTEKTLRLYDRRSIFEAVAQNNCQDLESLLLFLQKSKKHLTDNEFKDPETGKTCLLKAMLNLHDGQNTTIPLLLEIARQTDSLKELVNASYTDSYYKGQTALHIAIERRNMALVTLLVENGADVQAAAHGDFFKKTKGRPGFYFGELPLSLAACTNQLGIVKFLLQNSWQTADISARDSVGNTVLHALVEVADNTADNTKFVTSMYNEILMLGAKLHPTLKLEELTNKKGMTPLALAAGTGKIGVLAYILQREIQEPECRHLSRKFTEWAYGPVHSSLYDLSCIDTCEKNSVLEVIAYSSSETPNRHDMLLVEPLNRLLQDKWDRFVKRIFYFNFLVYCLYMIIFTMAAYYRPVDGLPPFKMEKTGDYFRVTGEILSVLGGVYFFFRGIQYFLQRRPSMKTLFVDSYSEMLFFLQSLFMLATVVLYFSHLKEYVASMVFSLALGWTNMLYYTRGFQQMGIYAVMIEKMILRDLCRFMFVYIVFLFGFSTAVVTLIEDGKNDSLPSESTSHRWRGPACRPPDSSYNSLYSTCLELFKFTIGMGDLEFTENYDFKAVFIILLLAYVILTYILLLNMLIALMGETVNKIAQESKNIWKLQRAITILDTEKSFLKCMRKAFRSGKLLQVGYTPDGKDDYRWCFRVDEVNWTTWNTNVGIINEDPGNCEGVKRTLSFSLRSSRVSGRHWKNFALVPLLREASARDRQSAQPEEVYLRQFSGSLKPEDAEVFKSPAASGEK
Assay: Inhibition of TRPV1 (unknown origin)
PARAMETER: IC50 (nM)
Give just the number in nM; leave the unit off.

The recorded IC50 for entry `COc1cc(/C=C/C(=O)[N-]S(=O)(=O)c2ccc(-n3nc(C(F)(F)F)cc3-c3ccc(C)cc3)cc2)ccc1[O-].[Na+].[Na+]` equals 140

The recorded IC50 for entry Cc1ccc(-c2cc(C(F)(F)F)nn2-c2ccc(S(=O)(=O)NC(=O)C(C)c3ccc(CC(C)C)cc3)cc2)cc1 (centres undefined) equals 1030

The reported measurements were obtained from ChEMBL document CHEMBL5236621.
